Molecular target: PRMT5 (Homo sapiens)
Construct: purchased Viva (custom protein)
Sequence (O14744 whole entry): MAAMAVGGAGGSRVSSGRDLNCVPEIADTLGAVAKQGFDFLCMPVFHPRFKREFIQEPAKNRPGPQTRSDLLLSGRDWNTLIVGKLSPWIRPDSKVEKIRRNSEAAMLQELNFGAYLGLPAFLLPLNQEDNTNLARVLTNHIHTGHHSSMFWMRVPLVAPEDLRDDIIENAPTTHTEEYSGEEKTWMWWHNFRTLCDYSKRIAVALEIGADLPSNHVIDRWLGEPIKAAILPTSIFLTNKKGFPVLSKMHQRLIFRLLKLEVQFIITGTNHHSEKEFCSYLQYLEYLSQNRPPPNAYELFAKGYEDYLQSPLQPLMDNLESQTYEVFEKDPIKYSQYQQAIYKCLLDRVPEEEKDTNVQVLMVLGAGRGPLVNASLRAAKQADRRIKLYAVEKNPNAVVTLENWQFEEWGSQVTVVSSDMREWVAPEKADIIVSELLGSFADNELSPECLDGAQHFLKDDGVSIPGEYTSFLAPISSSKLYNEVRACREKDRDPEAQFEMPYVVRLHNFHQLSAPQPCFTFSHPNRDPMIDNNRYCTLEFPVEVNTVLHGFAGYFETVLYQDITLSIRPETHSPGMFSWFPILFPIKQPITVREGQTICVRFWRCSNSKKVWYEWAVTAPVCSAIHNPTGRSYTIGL
Sequence (Q9BQA1 whole entry partner): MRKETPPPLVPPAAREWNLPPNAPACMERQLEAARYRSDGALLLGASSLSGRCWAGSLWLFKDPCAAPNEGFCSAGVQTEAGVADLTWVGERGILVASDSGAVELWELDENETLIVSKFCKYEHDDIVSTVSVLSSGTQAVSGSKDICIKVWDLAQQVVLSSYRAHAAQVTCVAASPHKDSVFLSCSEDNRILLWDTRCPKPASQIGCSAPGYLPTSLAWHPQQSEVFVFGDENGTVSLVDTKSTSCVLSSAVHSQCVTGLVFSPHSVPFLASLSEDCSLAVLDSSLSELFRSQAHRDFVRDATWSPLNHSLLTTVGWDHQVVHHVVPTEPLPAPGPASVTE
Assay: PRMT5 IC50 assay in the presence of SAM as cofactor
Format: biochemical
molecules and their reported IC50

| MOLECULE | MEASUREMENT TARGET | IC50 |
| --- | --- | --- |
| CCCN(C)c1cc(C(=O)NC[C@H](O)CN2CCc3cc(OCc4cnco4)ccc3C2)cc(NC2CCC2)n1 [Compound 415] | PRMT5 (Homo sapiens) | 50 to 500 nM |

Input line: Suppose we examine the molecule CC(=O)N1[C@@H]2CC[C@H]1C[C@H](Nc1cc(C(=O)NC[C@H](O)CN3CCc4cc(OCc5ocnc5C)ccc4C3)ccn1)C2 [Compound 645] ; what IC50 value has been reported?
Output line: 50 to 500 nM

Input line: Suppose we examine the molecule Cc1ncoc1COc1ccc2c(c1)CCN(C[C@@H](O)CNC(=O)c1ccc(OC3CCOCC3)cc1)C2 [Compound 475] ; what IC50 value has been reported?
Output line: 500 to 5000 nM

Input line: Suppose we examine the molecule O=C(NC[C@H](O)CN1CCc2cc(OCc3cnco3)ccc2C1)c1cc(NC2CCCCC2)ncn1 [Compound 395] ; what IC50 value has been reported?
Output line: 500 to 5000 nM

Input line: Suppose we examine the molecule Cc1c(OCc2cnco2)ccc2c1CCN(C[C@@H](O)CNC(=O)c1cc(N[C@H]3C[C@H](C(=O)N4CCCCC4)C3)ncn1)C2 [Compound 526] ; what IC50 value has been reported?
Output line: 500 to 5000 nM

Input line: Suppose we examine the molecule CC(=O)N1CCC(Nc2cc(C(=O)NC[C@H](O)CN3CCc4c(ccc(OCc5cn[nH]c5)c4C)C3)ncn2)CC1 [Compound 253] ; what IC50 value has been reported?
Output line: 500 to 5000 nM

Input line: Suppose we examine the molecule Cc1ncoc1COc1ccc2c(c1)CCN(C[C@@H](O)CNC(=O)c1cc(NC3CCC3)nc(N(C)C3CCC3)c1)C2 [Compound 635] ; what IC50 value has been reported?
Output line: 50 to 500 nM
